Sourced from ChEMBL document CHEMBL1139045

Molecular target: Peroxisome proliferator-activated receptor alpha (Homo sapiens, UniProt Q07869)
Sequence (Q07869 whole entry): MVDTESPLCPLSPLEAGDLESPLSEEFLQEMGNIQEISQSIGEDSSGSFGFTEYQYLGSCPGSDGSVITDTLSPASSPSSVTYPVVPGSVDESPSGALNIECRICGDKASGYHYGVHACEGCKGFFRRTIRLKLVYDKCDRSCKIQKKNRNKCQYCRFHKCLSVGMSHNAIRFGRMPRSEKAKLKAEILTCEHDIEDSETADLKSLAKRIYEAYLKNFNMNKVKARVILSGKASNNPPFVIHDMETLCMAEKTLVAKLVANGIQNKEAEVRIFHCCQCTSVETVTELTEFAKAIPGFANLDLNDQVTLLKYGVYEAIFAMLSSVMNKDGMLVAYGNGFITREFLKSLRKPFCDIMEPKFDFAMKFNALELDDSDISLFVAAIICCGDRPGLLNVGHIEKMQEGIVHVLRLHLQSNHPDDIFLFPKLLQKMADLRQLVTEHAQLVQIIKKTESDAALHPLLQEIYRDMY
pEC50: −log10 of the molar value.
Measured pEC50, listed per entry.

{"structure-string": "CCc1ccc(O[C@H](C)CCOc2ccc(CCC(=O)O)c(C)c2)c(-c2cscn2)c1", "target-system": "Peroxisome proliferator-activated receptor alpha (Homo sapiens, UniProt Q07869)", "pEC50": 5.57}
{"structure-string": "CCc1ccc(O[C@H](C)CCOc2ccc(CCC(=O)O)c(C)c2)c(-c2cocn2)c1", "target-system": "Peroxisome proliferator-activated receptor alpha (Homo sapiens, UniProt Q07869)", "pEC50": 5.55}
{"structure-string": "CCc1cc(OCC[C@@H](C)Oc2ccc(C(F)(F)F)cc2-c2ccccn2)ccc1CCC(=O)O", "target-system": "Peroxisome proliferator-activated receptor alpha (Homo sapiens, UniProt Q07869)", "pEC50": 5.58}
{"structure-string": "CCc1ccc(O[C@H](C)CCOc2ccc(CCC(=O)O)c(C)c2)c(-c2ccco2)c1", "target-system": "Peroxisome proliferator-activated receptor alpha (Homo sapiens, UniProt Q07869)", "pEC50": 5.55}
{"structure-string": "CCc1ccc(O[C@H](C)CCOc2ccc(CCC(=O)O)c(C)c2)c(-c2ncco2)c1", "target-system": "Peroxisome proliferator-activated receptor alpha (Homo sapiens, UniProt Q07869)", "pEC50": 5.54}
{"structure-string": "CCc1ccc(O[C@H](C)CCOc2ccc(CCC(=O)O)c(C)c2)c(-c2cccnc2)c1", "target-system": "Peroxisome proliferator-activated receptor alpha (Homo sapiens, UniProt Q07869)", "pEC50": 5.54}
{"structure-string": "Cc1cc(OCC[C@@H](C)Oc2ccc(C(F)(F)F)cc2-c2ccccn2)ccc1CCC(=O)O", "target-system": "Peroxisome proliferator-activated receptor alpha (Homo sapiens, UniProt Q07869)", "pEC50": 5.63}
